pIC50: −log10 of the molar value.
Let's go through some recorded pIC50 values for bovine erythrocyte CA II (bCA-II) (Bos taurus, UniProt P00921) together.

[
  {
    "Compound": "CCCSc1nc2ccccc2n1CC(=O)NN=Cc1ccc(O)c(OC)c1 [Compound 18]",
    "Tested system": "bovine erythrocyte CA II (bCA-II) (Bos taurus, UniProt P00921)",
    "pIC50": 4.64
  },
  {
    "Compound": "CCCSc1nc2ccccc2n1CC(=O)NN=Cc1ccc(C(C)C)cc1 [Compound 22]",
    "Tested system": "bovine erythrocyte CA II (bCA-II) (Bos taurus, UniProt P00921)",
    "pIC50": 4.61
  },
  {
    "Compound": "CCCSc1nc2ccccc2n1CC(=O)NN=Cc1ccccc1OC [Compound 29]",
    "Tested system": "bovine erythrocyte CA II (bCA-II) (Bos taurus, UniProt P00921)",
    "pIC50": 4.68
  },
  {
    "Compound": "CCCSc1nc2ccccc2n1CC(=O)NN=Cc1cccs1 [Compound 23]",
    "Tested system": "bovine erythrocyte CA II (bCA-II) (Bos taurus, UniProt P00921)",
    "pIC50": 4.61
  },
  {
    "Compound": "CCCSc1nc2ccccc2n1CC(=O)NN=Cc1ccc(C)o1 [Compound 26]",
    "Tested system": "bovine erythrocyte CA II (bCA-II) (Bos taurus, UniProt P00921)",
    "pIC50": 3.78
  },
  {
    "Compound": "CCCSc1nc2ccccc2n1CC(=O)NN=Cc1ccc(O)c(OCC)c1 [Compound 20]",
    "Tested system": "bovine erythrocyte CA II (bCA-II) (Bos taurus, UniProt P00921)",
    "pIC50": 4.34
  },
  {
    "Compound": "CCCSc1nc2ccccc2n1CC(=O)NN=Cc1cccc(OC)c1OC [Compound 27]",
    "Tested system": "bovine erythrocyte CA II (bCA-II) (Bos taurus, UniProt P00921)",
    "pIC50": 4.25
  },
  {
    "Compound": "CCCSc1nc2ccccc2n1CC(=O)NN=Cc1ccco1 [Compound 25]",
    "Tested system": "bovine erythrocyte CA II (bCA-II) (Bos taurus, UniProt P00921)",
    "pIC50": 3.71
  },
  {
    "Compound": "CCCSc1nc2ccccc2n1CC(=O)NN=Cc1ccc(F)cc1 [Compound 24]",
    "Tested system": "bovine erythrocyte CA II (bCA-II) (Bos taurus, UniProt P00921)",
    "pIC50": 3.79
  },
  {
    "Compound": "CCCSc1nc2ccccc2n1CC(=O)NN=Cc1cccc2ccccc12 [Compound 12]",
    "Tested system": "bovine erythrocyte CA II (bCA-II) (Bos taurus, UniProt P00921)",
    "pIC50": 4.84
  },
  {
    "Compound": "CCCSc1nc2ccccc2n1CC(=O)NN=Cc1ccccc1 [Compound 10]",
    "Tested system": "bovine erythrocyte CA II (bCA-II) (Bos taurus, UniProt P00921)",
    "pIC50": 4.76
  },
  {
    "Compound": "CCCSc1nc2ccccc2n1CC(=O)NN=Cc1c(Cl)cccc1Cl [Compound 28]",
    "Tested system": "bovine erythrocyte CA II (bCA-II) (Bos taurus, UniProt P00921)",
    "pIC50": 4.38
  },
  {
    "Compound": "CCCSc1nc2ccccc2n1CC(=O)NN=Cc1ccc(OC)cc1OC [Compound 15]",
    "Tested system": "bovine erythrocyte CA II (bCA-II) (Bos taurus, UniProt P00921)",
    "pIC50": 4.84
  },
  {
    "Compound": "CCCSc1nc2ccccc2n1CC(=O)NN=Cc1cccc(O)c1 [Compound 17]",
    "Tested system": "bovine erythrocyte CA II (bCA-II) (Bos taurus, UniProt P00921)",
    "pIC50": 4.50
  },
  {
    "Compound": "CCCSc1nc2ccccc2n1CC(=O)NN=Cc1cccc(OC)c1O [Compound 9]",
    "Tested system": "bovine erythrocyte CA II (bCA-II) (Bos taurus, UniProt P00921)",
    "pIC50": 4.88
  }
]

###

# Tested system: bovine erythrocyte CA II (bCA-II) (Bos taurus)
# Sequence (P00921 whole entry): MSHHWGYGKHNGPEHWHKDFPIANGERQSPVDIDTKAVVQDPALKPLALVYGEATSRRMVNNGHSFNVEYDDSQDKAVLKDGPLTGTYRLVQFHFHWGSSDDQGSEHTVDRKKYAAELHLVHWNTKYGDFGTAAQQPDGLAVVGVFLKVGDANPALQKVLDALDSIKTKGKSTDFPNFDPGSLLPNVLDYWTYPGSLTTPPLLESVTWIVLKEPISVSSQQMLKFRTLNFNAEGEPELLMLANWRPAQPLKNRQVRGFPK
# Method summary: In vitro carbonic anhydrase inhibition assay
# Format: biochemical
# Applied conditions: qualitative statement
Property measured: inhibition activity against bCA-II (in words)

[
  {
    "Compound": "CCCSc1nc2ccccc2n1CC(=O)NN=Cc1ccc(O)c(OCC)c1 [Compound 20]",
    "Tested system": "bovine erythrocyte CA II (bCA-II) (Bos taurus)",
    "Value measured": "least active inhibitors"
  },
  {
    "Compound": "CCCSc1nc2ccccc2n1CC(=O)NN=Cc1cccc(O)c1 [Compound 17]",
    "Tested system": "bovine erythrocyte CA II (bCA-II) (Bos taurus)",
    "Value measured": "least active inhibitors"
  },
  {
    "Compound": "CCCSc1nc2ccccc2n1CC(=O)NN=Cc1c(Cl)cccc1Cl [Compound 28]",
    "Tested system": "bovine erythrocyte CA II (bCA-II) (Bos taurus)",
    "Value measured": "least active inhibitors"
  }
]

All figures here come from paper PMC8756595.
